Cited source for all entries: the supplement of paper PMC6757056

B1: library; a variant is named by its letters at N, in order (parent)
chain: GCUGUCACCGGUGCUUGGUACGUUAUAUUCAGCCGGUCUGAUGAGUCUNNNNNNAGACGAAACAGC

Variants of: B1
Test: normalized RNA/DNA level without ligand (relative to sTRSVctl = 100) (log10 (% of sTRSVctl)); HEK293T overexpressing SLC46A1; higher = less ribozyme self-cleavage, higher mRNA level
Conditions: without (6R,S)-folinic acid; ligand present: no
metric_name: normalized RNA/DNA level without ligand (log10)
Response field accepts a number only; no unit should be typed.

Worked cases, normalized RNA/DNA level without ligand (log10) given:
1. GGUCUA :: 2.01
2. AUAUCA :: 2.01
3. AGAAUG :: 1.89
4. AGUGCA :: 1.97
5. GGUAAC :: 1.99

# normalized RNA/DNA level without ligand (log10) (variant: GAUUUG ) is 1.95

# normalized RNA/DNA level without ligand (log10) (variant: GCCCAC ) is 2.02
